Reference source for all entries: ChEMBL document CHEMBL1134680

# measurement.target: Protein kinase C alpha type (Homo sapiens)
observed.property: Ki (nM)

smiles_record=C=C(/C=C/C=C(/CCC=C(C)C)COC(C)=O)[C@@H]1CC[C@]2([C@H](CCCO)/C(=C(/C)C=O)CC[C@]2(C)O)[C@@H]1O recorded_number=83.6

---

# measurement.target: Ras guanyl-releasing protein 3 (Homo sapiens, UniProt Q8IV61)
# Sequence (Q8IV61 whole entry): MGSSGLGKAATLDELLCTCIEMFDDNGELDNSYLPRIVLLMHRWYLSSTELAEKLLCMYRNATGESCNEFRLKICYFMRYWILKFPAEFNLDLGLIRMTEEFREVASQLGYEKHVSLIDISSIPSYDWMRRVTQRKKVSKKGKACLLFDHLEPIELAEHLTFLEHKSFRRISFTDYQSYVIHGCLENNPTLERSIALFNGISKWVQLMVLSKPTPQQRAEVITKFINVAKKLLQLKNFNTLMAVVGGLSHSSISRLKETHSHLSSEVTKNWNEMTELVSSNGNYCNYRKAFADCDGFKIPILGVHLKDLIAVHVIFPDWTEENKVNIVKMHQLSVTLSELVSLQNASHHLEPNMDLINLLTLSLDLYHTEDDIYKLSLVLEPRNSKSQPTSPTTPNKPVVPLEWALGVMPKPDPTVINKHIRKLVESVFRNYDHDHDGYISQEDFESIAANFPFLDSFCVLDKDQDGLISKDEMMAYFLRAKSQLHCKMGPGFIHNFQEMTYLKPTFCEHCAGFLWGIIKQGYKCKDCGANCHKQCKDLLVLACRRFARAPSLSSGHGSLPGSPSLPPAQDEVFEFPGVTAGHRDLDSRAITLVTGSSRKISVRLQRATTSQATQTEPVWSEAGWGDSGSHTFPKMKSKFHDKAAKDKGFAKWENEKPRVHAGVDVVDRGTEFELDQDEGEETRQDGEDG
# assay.text: Binding affinity for RasGPR3, guanine nucleotide exchange factor
pKi: −log10 of the molar value.
observed.property: pKi

smiles_record=C=C(/C=C/C=C(/CCC=C(C)C)COC(C)=O)[C@@H]1CC[C@]2([C@H](CCCO)/C(=C(/C)C=O)CC[C@]2(C)O)[C@@H]1O recorded_number=7.38

---

# measurement.target: UniProtKB Q8IV61
# assay.text: Binding affinity for RasGRP, guanine nucleotide exchange factor
pKi: −log10 of the molar value.
observed.property: pKi

smiles_record=CC1=CC[C@H](C)C(C)(C)[C@@H]1/C=C/C(C)=C\CC[C@@]1(CO)[C@H](CCCO)/C(=C(/C)C=O)CC[C@]1(C)O observed_property=pKi recorded_number=7.81
